pIC50: −log10 of the molar value.
pIC50 tested on Pyruvate kinase PKLR (Homo sapiens): recorded values
Sequence (P30613 whole entry): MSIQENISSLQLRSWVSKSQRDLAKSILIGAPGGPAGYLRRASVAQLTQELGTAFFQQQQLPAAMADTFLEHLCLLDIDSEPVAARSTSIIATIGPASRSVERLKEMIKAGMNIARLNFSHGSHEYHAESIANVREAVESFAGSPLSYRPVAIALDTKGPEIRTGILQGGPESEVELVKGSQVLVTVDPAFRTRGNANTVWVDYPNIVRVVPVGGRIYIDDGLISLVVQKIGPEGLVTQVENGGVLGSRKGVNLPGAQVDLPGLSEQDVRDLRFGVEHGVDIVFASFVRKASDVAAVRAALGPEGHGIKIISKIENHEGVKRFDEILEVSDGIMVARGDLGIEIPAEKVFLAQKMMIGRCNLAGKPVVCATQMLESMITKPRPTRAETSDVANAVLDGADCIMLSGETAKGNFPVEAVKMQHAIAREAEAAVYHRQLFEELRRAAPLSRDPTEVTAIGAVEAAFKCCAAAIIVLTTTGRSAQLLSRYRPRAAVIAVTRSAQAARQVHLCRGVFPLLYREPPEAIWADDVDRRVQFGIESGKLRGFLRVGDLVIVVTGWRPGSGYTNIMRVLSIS

{"COMPOUND": "O=C(O)CC[C@H](NC(=O)C1CCCN(S(=O)(=O)c2cc3c(c(O)c2O)C(=O)c2ccccc2C3=O)C1)C(=O)O (some centres undefined)", "pIC50": 5.89}
{"COMPOUND": "O=C1c2ccccc2C(=O)c2c1cc(S(=O)(=O)N[C@@H](CO)C(=O)O)c(O)c2O", "pIC50": 6.05}
{"COMPOUND": "O=C(O)CNC(=O)CNC(=O)CNS(=O)(=O)c1cc2c(c(O)c1O)C(=O)c1ccccc1C2=O", "pIC50": 6.15}
{"COMPOUND": "O=C(O)c1cc2c(c(O)c1O)C(=O)c1ccccc1C2=O", "pIC50": 5.85}
